Endpoint: IC50. System: CaMKIIδ (Homo sapiens, UniProt Q13557). Items follow.
Sequence (Q13557 whole entry, looked up): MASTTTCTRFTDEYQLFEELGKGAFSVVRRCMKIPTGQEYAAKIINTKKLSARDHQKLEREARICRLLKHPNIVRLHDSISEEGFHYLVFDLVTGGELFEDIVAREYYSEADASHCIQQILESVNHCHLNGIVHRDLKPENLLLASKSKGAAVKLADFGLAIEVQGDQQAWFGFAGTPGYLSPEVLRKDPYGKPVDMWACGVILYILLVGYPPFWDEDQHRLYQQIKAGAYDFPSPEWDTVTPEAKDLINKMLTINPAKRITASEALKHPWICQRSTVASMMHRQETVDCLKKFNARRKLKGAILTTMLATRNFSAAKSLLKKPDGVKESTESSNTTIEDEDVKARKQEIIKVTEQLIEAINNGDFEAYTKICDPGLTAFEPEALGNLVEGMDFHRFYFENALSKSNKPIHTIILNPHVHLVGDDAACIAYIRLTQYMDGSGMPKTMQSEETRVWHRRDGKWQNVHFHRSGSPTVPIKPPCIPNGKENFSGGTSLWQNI

Here are 8 compounds together with their reported answers.
N=C(N)Nc1cccc(-c2ccnc3[nH]c4ccccc4c23)c1 [Compound I-4]
50 to 250 nM
c1cc(-c2ccnc3[nH]c4ccccc4c23)cc(-n2ccnc2)c1 [Compound I-2]
≥ 1000 nM
NCCCNc1cccc(-c2ccnc3[nH]c4ccccc4c23)c1 [Compound I-8]
≤ 50 nM
c1cc(-c2ccnc3[nH]c4ccccc4c23)cc(N2CCNCC2)c1 [Compound I-1]
50 to 250 nM
NCCOc1cccc(-c2ccnc3[nH]c4ccccc4c23)c1 [Compound I-9]
≤ 50 nM
NCCNc1cccc(-c2ccnc3[nH]c4ccc(Cl)cc4c23)c1 [Compound I-14]
≤ 50 nM
Cc1ccc2c(c1)[nH]c1nccc(-c3cccc(NCCN)c3)c12 [Compound I-11]
≤ 50 nM
NCc1cccc(-c2ccnc3[nH]c4ccccc4c23)c1 [Compound I-3]
≥ 1000 nM

Next item in the queue.
Data request: Which IC50 value belongs to COc1ccc2c(c1)[nH]c1nccc(-c3cccc(NCCN)c3)c12 [Compound I-12] ?
Data returned: ≤ 50 nM
